# Read-out: cysteine-aspartic acid protease (CASP8), CASP8 (gene 841)
# Assay details: LTEA_HepaRG_CASP8: Life Technologies and Expression Analysis (LTEA) Assay for cysteine-aspartic acid protease (CASP8) using HepaRG (AID 2283480)
# Cond: mRNA level, 48 h; actives raise or lower the signal
Calls of active or inactive are those of the source. How the source made its calls: active means hit-call score of the fitted dose curve at least 0.9, where 1 is the maximum; inactive means score below 0.9.
Lab note: assign the record to one of T (active), F (inactive)

Example cases with answers are listed next.
CC[C@H](C)[C@H]1O[C@]2(C=C[C@@H]1C)C[C@@H]1C[C@@H](C/C=C(\C)[C@@H](O[C@H]3C[C@H](OC)[C@@H](O[C@H]4C[C@H](OC)[C@@H](O)[C@H](C)O4)[C@H](C)O3)[C@@H](C)/C=C/C=C3\CO[C@@H]4[C@H](O)C(C)=C[C@@H](C(=O)O1)[C@]34O)O2 (tested in a mixture with another compound) = F
CCCN(CCC)c1c([N+](=O)[O-])cc(C(F)(F)F)cc1[N+](=O)[O-] = F
CC(C)N(C(=O)COc1nnc(C(F)(F)F)s1)c1ccc(F)cc1 = F

-- ask Outcome logged for O=C(Nc1ccccc1)Nc1cnns1 in this assay:
-- reply F

-- ask Outcome logged for CC(C)(C)C(O)/C(=C\c1ccc(Cl)cc1Cl)n1cncn1 (stereo not drawn) in this assay:
-- reply T

-- ask Outcome logged for CNC(=O)/C=C(\C)OP(=O)(OC)OC in this assay:
-- reply F

-- ask Outcome logged for Clc1ccccc1-c1nnc(-c2ccccc2Cl)nn1 in this assay:
-- reply F

Recorded values, source PubChem BioAssay (EPA / NIEHS).
